System: SARS-CoV-2
Assay: Antiviral activity against SARS-CoV-2 infected in Vero E6 cells assessed as viral RNA level measured after 48 hrs by RT-PCR analysis
Format: functional, organism-based
Settings: Severe acute respiratory syndrome coronavirus 2, Vero C1008, 48 h
// reported EC50 per item

# COMPOUND, EC50
measured = [
    ("CCN(CCO)CCC[C@H](C)Nc1ccnc2cc(Cl)ccc12.O=S(=O)(O)O", "3.05 µM"),
    ("CCN(CCO)CCC[C@@H](C)Nc1ccnc2cc(Cl)ccc12.O=S(=O)(O)O", "5.38 µM"),
    ("CCN(CCO)CCCC(C)Nc1ccnc2cc(Cl)ccc12.O=S(=O)(O)O (racemic) [HYDROXYCHLOROQUINE SULFATE]", "5.09 µM"),
]
